Origin of the recorded values: patent US10940188B2

Test system: ZIKV MR766 NS1
ASSAY_OVERVIEW: microbe, parasite or virus in culture
Format: cell-based, Zika virus
CONDITIONS: Zika virus, HEK293, 48 h, read-out: NS1-IC50
Where a name gives a salt, the structure may show the parent alone.
Listed here: items and their measured IC50.
# output: bare number, implied unit nM

Example entries begin here.
Consider the compound COc1cccc2c1C(=O)c1c(O)c3c(c(O)c1C2=O)C[C@@](O)(C(=O)CO)C[C@@H]3O[C@H]1C[C@H](N)[C@@H](O)[C@H](C)O1 [Epirubicin hydrochloride] and give its measured IC50.
492

Consider the compound C[C@H]1O[C@@H](O[C@H]2[C@@H](O)C[C@H](O[C@H]3[C@@H](O)C[C@H](O[C@H]4CC[C@@]5(C)[C@H](CC[C@@H]6[C@@H]5C[C@@H](O)[C@]5(C)[C@@H](C7=CC(=O)OC7)CC[C@]65O)C4)O[C@@H]3C)O[C@@H]2C)C[C@H](O)[C@@H]1O [Digoxin] and give its measured IC50.
152

Consider the compound NCC(=O)Nc1ccc(-n2nc(C(F)(F)F)cc2-c2ccc3c(ccc4ccccc43)c2)cc1 [OSU-03012] and give its measured IC50.
992

Consider the compound CC[C@]1(O)C[C@@H]2CN(CCc3c([nH]c4ccccc34)[C@@](C(=O)OC)(c3cc4c(cc3OC)N(C)[C@H]3[C@@](O)(C(N)=O)[C@H](O)[C@]5(CC)C=CCN6CC[C@]43[C@@H]65)C2)C1 [Vindesine sulfate salt] and give its measured IC50.
664

Continuing:
Consider the compound C[C@@H]1C[C@@H]([C@H](O)CC2CC(=O)NC(=O)C2)C(=O)[C@@H](C)C1 [Cycloheximide] and give its measured IC50.
287

###

Listed here: items and their measured log10 of IC50.
System: ZIKV-induced caspase 3/7 activity in hNPCs
ASSAY_OVERVIEW: Caspase 3/7 activity assay, ZIKV-infected hNPCs
Type: cell-based
CONDITIONS: Homo sapiens; ZIKV-infected hNPCs; read-out: Caspase 3 (IC50, uM) NPCs
Reminder: these figures are log10 of reported IC50, in µM before transformation.

Return log10 of IC50 measured with ZIKV-induced caspase 3/7 activity in hNPCs given this molecule: Clc1ccccc1-c1nc(-c2ccncc2)no1 [Pifexole]
0.66

Return log10 of IC50 measured with ZIKV-induced caspase 3/7 activity in hNPCs given this molecule: Cc1nc(-c2ccc(OCC(C)C)c(C#N)c2)sc1C(=O)O
0.59

Return log10 of IC50 measured with ZIKV-induced caspase 3/7 activity in hNPCs given this molecule: O=C(Nc1ncc([N+](=O)[O-])s1)c1cccs1
0.11

Return log10 of IC50 measured with ZIKV-induced caspase 3/7 activity in hNPCs given this molecule: CN1CCN(c2cc3c(nn2)Oc2ccccc2N3C)CC1
1.08

Return log10 of IC50 measured with ZIKV-induced caspase 3/7 activity in hNPCs given this molecule: CCC(C(=O)O)c1ccc(N2Cc3ccccc3C2=O)cc1 (stereo not drawn)
0.79

Continuing:
Return log10 of IC50 measured with ZIKV-induced caspase 3/7 activity in hNPCs given this molecule: O=C1C[C@@H](c2ccc(O)cc2)Oc2cc(O)cc(O)c21
1.19

Return log10 of IC50 measured with ZIKV-induced caspase 3/7 activity in hNPCs given this molecule: O=C(O)c1ccccc1NCCc1ccccc1
1.34

Return log10 of IC50 measured with ZIKV-induced caspase 3/7 activity in hNPCs given this molecule: CC(C(=O)O)c1ccc(C(=O)c2ccccc2)s1 (stereo not drawn)
0.94

Return log10 of IC50 measured with ZIKV-induced caspase 3/7 activity in hNPCs given this molecule: CCC(CC)CC1(C(=O)Nc2ccccc2SC(=O)C(C)C)CCCCC1
1.55

Return log10 of IC50 measured with ZIKV-induced caspase 3/7 activity in hNPCs given this molecule: O=c1c2ccccc2nc2n1CCc1c-2[nH]c2ccccc12
0.66

Return log10 of IC50 measured with ZIKV-induced caspase 3/7 activity in hNPCs given this molecule: Cc1cccc(C#Cc2ccccc2)n1
0.61

Return log10 of IC50 measured with ZIKV-induced caspase 3/7 activity in hNPCs given this molecule: O=c1c(-c2ccc(O)cc2)coc2cc(O[C@@H]3O[C@H](CO)[C@@H](O)[C@H](O)[C@H]3O)cc(O)c12
1.24

Return log10 of IC50 measured with ZIKV-induced caspase 3/7 activity in hNPCs given this molecule: Cc1oncc1C(=O)Nc1ccc(C(F)(F)F)cc1 [Leflunomide]
0.14

Return log10 of IC50 measured with ZIKV-induced caspase 3/7 activity in hNPCs given this molecule: c1ccc(CCNc2nc(-c3ccccc3)cs2)cc1
1.16

Return log10 of IC50 measured with ZIKV-induced caspase 3/7 activity in hNPCs given this molecule: O=c1cc(-c2ccccc2)oc2cc(O)c(O)c(O)c12
1.26

Return log10 of IC50 measured with ZIKV-induced caspase 3/7 activity in hNPCs given this molecule: O=c1cc(-c2ccccc2)oc2cc(O)cc(O)c12 [5,7-Dihydroxyflavone]
0.74

Return log10 of IC50 measured with ZIKV-induced caspase 3/7 activity in hNPCs given this molecule: O=C(O)[C@@H](c1ccc(OCc2ccc3ccccc3n2)cc1)C1CCCC1
0.99

Return log10 of IC50 measured with ZIKV-induced caspase 3/7 activity in hNPCs given this molecule: CCOCCOC(=O)C=Cc1ccc(OC)cc1 [2-Ethoxylethyl-p-methoxycinnamate]
1.26
